# experimentDescription: logP (pH 2)
Would you please tag the item Condition met when its logP is 3 or above, and Condition not met when it is below?

Recorded results for 3 molecules are shown here.
# molecule, classAssignment
measured = [
    ("N#Cc1cccc(C(=O)CCCCl)c1 [VI-1, 3′-cyano-4-chlorobutyrophenone]", "Condition not met"),
    ("N#Cc1cccc(C2=NN(C(=O)Nc3ccc(OC(F)(F)F)cc3)CCC2n2cc(Cl)cn2)c1 (stereo not drawn) [Example 1]", "Condition met"),
    ("N#Cc1cccc(C2=NNCCC2n2cc(Cl)cn2)c1 (stereo not drawn) [II-1]", "Condition not met"),
]

Now consider a different molecule.
Asked: Hi, just wondering whether N#Cc1cccc(C(=O)C2CCOC2=O)c1 (stereo not drawn) shows logP of 3 or higher.
Given back: Condition not met
